target: human Siglec-7 on primary human monocyte-derived dendritic cells (human, UniProt Q9Y286 19-467); assay: cell-based or functional assay
Sequence (Q9Y286 19-467): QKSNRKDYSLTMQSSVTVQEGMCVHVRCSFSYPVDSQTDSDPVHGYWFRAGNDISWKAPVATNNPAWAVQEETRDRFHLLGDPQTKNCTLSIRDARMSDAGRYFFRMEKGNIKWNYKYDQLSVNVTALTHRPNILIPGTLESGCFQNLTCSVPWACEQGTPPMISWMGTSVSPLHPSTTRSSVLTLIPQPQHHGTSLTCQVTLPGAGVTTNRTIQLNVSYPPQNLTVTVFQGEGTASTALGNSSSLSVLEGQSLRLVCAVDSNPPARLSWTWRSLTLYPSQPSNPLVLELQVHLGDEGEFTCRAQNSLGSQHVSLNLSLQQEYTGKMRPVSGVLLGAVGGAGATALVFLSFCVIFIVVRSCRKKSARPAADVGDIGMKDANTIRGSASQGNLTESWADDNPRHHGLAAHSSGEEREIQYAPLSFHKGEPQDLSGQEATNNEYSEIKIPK
Below: a set of entries, each annotated with reported Maximal downregulation (% Siglec-7 remaining).
Entry rule: numbers only, all in %.

S7AB-H8.34.1 (antibody, V domains shown) VH: QVQLVQSGAEVKKPGASVKVSCKASGYAFTAAWMNWVRQAPGQRLEWIGRIFPGLGHTNYAQKFQGRATLTEDTSTSTAYMELSSLRSEDTAVYYCARDYSDYYFDYWGQGTLVTVSS VL: DIQMTQSPSSLSASVGDRVTITCRGSQDINTYLNWYQQKPGKAPKLLIYYTSRLHSGVPSRFSGSGSGTDYTLTISSLQPEDFATYYCQQGGTLPWTFGQGTKLEIK ... 4.4

Can you share its Maximal downregulation (% Siglec-7 remaining)? I mean this binder: S7AB-H8.32 (antibody, V domains shown) VH: QVQLVQSGAEVKKPGASVKVSCKASGYAFTMAWMNWVRQAPGQGLEWIGRIFPGYGHTNYAQKFQGRATLTEDTSTSTAYMELSSLRSEDTAVYYCARDYSDYYFDYWGQGTLVTVSS VL: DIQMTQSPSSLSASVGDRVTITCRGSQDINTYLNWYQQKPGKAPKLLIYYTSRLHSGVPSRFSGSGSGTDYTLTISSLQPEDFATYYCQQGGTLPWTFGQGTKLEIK 3.4
